- System: CCRIS mutagenicity, Ames/micronucleus/aberration tests
- PROCEDURE_TEXT: CCRIS mutagenicity studies
- CONDITIONS: Test System: AMES SALMONELLA TYPHIMURIUM; Strain/Indicator: TA1530; Metabolic Activation: NONE; Method: STANDARD PLATE
- Excerpt: The CCRIS database contains chemical records with carcinogenicity, mutagenicity, tumor promotion, and tumor inhibition test results. It was developed by the National Cancer Institute (NCI). Data are derived from studies cited in primary journals, current awareness tools, NCI reports, and other sources. Test results have been reviewed by experts in carcinogenesis and mutagenesis. CCRIS provides historical information from the years 1985 - 2011. It is no longer updated. […]
Activity calls are given as the source filed them. The rule behind the calls is not given here.
Outcome codes: 1 for active, 0 for inactive

MOLECULE	EXPERIMENTAL_SYSTEM	QUALITATIVE_LABEL
C1CCC2OCCOCCOCCOC3CCCCC3OCCOCCOCCOC2C1 (stereo not given)	CCRIS mutagenicity, Ames/micronucleus/aberration tests	0
[N-]=[N+]=[N-]	CCRIS mutagenicity, Ames/micronucleus/aberration tests	1
C1COCCOCCOCCOCCO1	CCRIS mutagenicity, Ames/micronucleus/aberration tests	0
[N-]=[N+]=NCC(=O)O	CCRIS mutagenicity, Ames/micronucleus/aberration tests	0
C1COCCOCCOCCOCCOCCOCCO1	CCRIS mutagenicity, Ames/micronucleus/aberration tests	0

---

- Tested on: CCRIS mutagenicity, Ames/micronucleus/aberration tests
- PROCEDURE_TEXT: CCRIS mutagenicity studies
- CONDITIONS: Test System: CHINESE HAMSTER V-79; Strain/Indicator: V-79/OUABAIN; Metabolic Activation: HAMSTER, HEPATOCYTES; Method: CELL-MEDIATED
The source made the active and inactive calls. No rule for the calls is given here.
VALUE_KIND: mutagenic call

MOLECULE	VALUE_OBSERVED
CCCN(CC(C)O)N=O (centres undefined)	active; positive
CCCCN(CCCC)N=O	active; positive
CC(=O)CN(C)N=O	active; positive
CCCN(CCC)N=O	active; positive

---

- System: CCRIS mutagenicity, Ames/micronucleus/aberration tests
- PROCEDURE_TEXT: CCRIS mutagenicity studies
- CONDITIONS: Test System: AMES SALMONELLA TYPHIMURIUM; Strain/Indicator: TA100; Metabolic Activation: RAT, LIVER, MICROSOMES, PHENOBARBITAL; Method: STANDARD PLATE
- Excerpt: The CCRIS database contains chemical records with carcinogenicity, mutagenicity, tumor promotion, and tumor inhibition test results. It was developed by the National Cancer Institute (NCI). Data are derived from studies cited in primary journals, current awareness tools, NCI reports, and other sources. Test results have been reviewed by experts in carcinogenesis and mutagenesis. CCRIS provides historical information from the years 1985 - 2011. It is no longer updated. […]
Active and inactive are the calls of the source. The rule behind the calls is not given here.
Possible outcomes: active, inactive

SMILES_STRUCTURE	QUALITATIVE_LABEL
COc1cc2c(c3oc(=O)c4c(c13)CCOC4=O)[C@@H]1C=CO[C@@H]1O2	active
C=C(C)C(=O)/C(=C\C(=O)O)OC	inactive
C=C(Cl)CCl	inactive
COc1cc2c(c3oc(=O)c4c(c13)CCC4=O)[C@@H]1C=CO[C@@H]1O2	active

---

- Test system: CCRIS mutagenicity, Ames/micronucleus/aberration tests
- PROCEDURE_TEXT: CCRIS mutagenicity studies
- CONDITIONS: Test System: AMES SALMONELLA TYPHIMURIUM; Strain/Indicator: TA100; Metabolic Activation: HAMSTER, LIVER, S-9, PCB; Method: PREINCUBATION
The source made the active and inactive calls. How the calls were made is not given here.
Labels: active, inactive

SMILES_STRUCTURE	EXPERIMENTAL_SYSTEM	QUALITATIVE_LABEL
CC(=O)Nc1ccc(O)cc1	CCRIS mutagenicity, Ames/micronucleus/aberration tests	active
Cc1c(N(C)C)c(=O)n(-c2ccccc2)n1C	CCRIS mutagenicity, Ames/micronucleus/aberration tests	inactive
C/C=C1\C[C@@H](C)[C@](C)(OC(C)=O)C(=O)OC/C2=C/CN(C)CC[C@@H](OC1=O)C2=O	CCRIS mutagenicity, Ames/micronucleus/aberration tests	inactive
CC(=O)Oc1ccccc1C(=O)O	CCRIS mutagenicity, Ames/micronucleus/aberration tests	inactive

---

- System: CCRIS mutagenicity, Ames/micronucleus/aberration tests
- PROCEDURE_TEXT: CCRIS mutagenicity studies
- CONDITIONS: Test System: AMES SALMONELLA TYPHIMURIUM; Strain/Indicator: TA2637; Metabolic Activation: NONE; Method: STANDARD PLATE
Activity calls are given as the source filed them. No rule for the calls is given here.
Possible outcomes: True (active), False (inactive)

SMILES_STRUCTURE	QUALITATIVE_LABEL
COc1cccc2c1C(=O)c1c(O)c3c(c(O)c1C2=O)C[C@@](O)(C(C)=NNC(=O)c1ccccc1)C[C@@H]3O[C@H]1C[C@H](N)[C@H](O)[C@H](C)O1	True
CC(=O)[C@]1(O)Cc2c(O)c3c(c(O)c2[C@@H](O[C@H]2C[C@H](N)[C@H](O)[C@H](C)O2)C1)C(=O)c1c(O)cccc1C3=O	True
COc1cccc2c1C(=O)c1c(O)c3c(c(O)c1C2=O)C[C@@](O)(C(=O)CO)C[C@@H]3O[C@H]1C[C@H](N)[C@H](O)[C@H](C)O1	True
CC1(C)CCC[C@]2(C)[C@H]3CC=C(C=O)[C@@H](C=O)[C@]3(C)CC[C@@H]12	False
COc1cccc2c1C(=O)c1c(O)c3c(c(O)c1C2=O)C[C@@](O)(C(=O)CO)C[C@@H]3O[C@H]1C[C@H](N)[C@@H](O)[C@H](C)O1	True
C[C@H](CC1=C(C=O)CO[C@@H]1O)C1=CCC(C)(C)C1	False

---

- Tested on: CCRIS mutagenicity, Ames/micronucleus/aberration tests
- PROCEDURE_TEXT: CCRIS mutagenicity studies
- CONDITIONS: Test System: AMES SALMONELLA TYPHIMURIUM; Strain/Indicator: TA1535; Metabolic Activation: NONE; Method: STANDARD PLATE
Activity calls are given as the source filed them. No rule for the calls is given here.
VALUE_KIND: mutagenic call

MOLECULE	VALUE_OBSERVED
Cc1nc2ccccc2s1	inactive; negative
COc1ccc(CNCC(O)COc2ccc3[nH]c(=O)ccc3c2)cc1OC (centres undefined)	inactive; negative
CC1(C)[C@@H](O[C@H]2O[C@H](C(=O)O)[C@@H](O)[C@H](O)[C@H]2O[C@@H]2O[C@H](C(=O)O)[C@@H](O)[C@H](O)[C@H]2O)CC[C@]2(C)[C@H]3C(=O)C=C4[C@@H]5C[C@@](C)(C(=O)O)CC[C@]5(C)CC[C@@]4(C)[C@]3(C)CC[C@@H]12	inactive; negative

---

- Tested on: CCRIS mutagenicity, Ames/micronucleus/aberration tests
- PROCEDURE_TEXT: CCRIS mutagenicity studies
- CONDITIONS: Test System: AMES SALMONELLA TYPHIMURIUM; Strain/Indicator: TA100; Metabolic Activation: NONE; Method: STANDARD PLATE
The source made the active and inactive calls. No rule for the calls is given here.
Possible outcomes: yes (1) for active, no (0) for inactive

COMPOUND	QUALITATIVE_LABEL
C=CC(=O)OCC	no (0)
c1ccc(-c2ccc(CCC3CO3)cc2)cc1 (stereo not drawn)	yes (1)
CCC(C)OS(C)(=O)=O (stereo not drawn)	yes (1)
OOC1CCCc2ccccc21 (stereo not drawn)	yes (1)
Nc1ccc(-c2ccc(N)c([N+](=O)[O-])c2)cc1	no (0)
ClCc1ccc(Br)cc1	no (0)
NC(=O)NCC(=O)O	no (0)
CC(C)CC(=O)Nc1snc2ccccc12	no (0)

---

- Test system: CCRIS mutagenicity, Ames/micronucleus/aberration tests
- PROCEDURE_TEXT: CCRIS mutagenicity studies
- CONDITIONS: Test System: AMES SALMONELLA TYPHIMURIUM; Strain/Indicator: TA1537; Metabolic Activation: HAMSTER, LIVER, S-9, AROCLOR 1254 (10%); Method: PREINCUBATION
Active and inactive are the calls of the source. How the calls were made is not given here.
Outcome codes: 1 = active, 0 = inactive

COMPOUND	QUALITATIVE_LABEL
Cc1ccccc1N=Nc1ccc(N(C)C)cc1	0
CC(C)=CCC/C(C)=C/C=O	0
CCNCC	0
[N-]=[N+]=[N-]	0
NCCO	0
CCCN(CCC)S(=O)(=O)c1ccc(C(=O)O)cc1	0
Cc1ccc(OP(=O)(Oc2ccc(C)cc2C)Oc2ccc(C)cc2C)c(C)c1	0
C=C(C)C(=O)OCC(C)C	0
Oc1ccc(Cl)cc1Cc1ccccc1	0
[O]=[Zr]	0
Cc1ccccc1N	0
C=CC(=C)C	0
CCCCN(CCO)CCCC	0
O=C1N(CO)C(O)C(O)N1CO (stereo not given)	0
COc1ccc([N+](=O)[O-])cc1N=Nc1c(O)c(C(=O)Nc2cccc([N+](=O)[O-])c2)cc2ccccc12	1
